# Tested on: RAW 264.7 cells
# ASSAY_PROTOCOL: MTT assay, cytostatic activity on RAW 264.7 cells
# Assay type: cell-based, mouse
# TEST_CONTEXT: RAW 264.7, 24, 48 and 72 h
QUANTITY_KIND: cytostatic activity above the stated concentration

Sample records with cytostatic activity above the stated concentration:
{"COMPOUND": "CCCCCCCCCCCC/C=C(\\Cl)C=O", "MEASUREMENT_TARGET": "RAW 264.7 cells", "DATA_VALUE": "> 3.125 µM"}
{"COMPOUND": "CC1=C(C)[C@](C)(c2ccc(C)cc2)CC1=O (stereo in doubt)", "MEASUREMENT_TARGET": "RAW 264.7 cells", "DATA_VALUE": "above 25 μM"}
{"COMPOUND": "CC1CCC(O)C2=CCC3C(C3(C)C)C21C (centres unmarked)", "MEASUREMENT_TARGET": "RAW 264.7 cells", "DATA_VALUE": "above 50 μM"}
{"COMPOUND": "C#CC=CC(Cl)C1C2CC3OC(OC)(C(Br)CC)C1C3O2 (centres unmarked)", "MEASUREMENT_TARGET": "RAW 264.7 cells", "DATA_VALUE": "above 25 μM"}
{"COMPOUND": "C[C@@]12O[C@]1(C)CC[C@@]2(C)c1ccc(CO)cc1 (relative stereo)", "MEASUREMENT_TARGET": "RAW 264.7 cells", "DATA_VALUE": "above 50 μM"}
{"COMPOUND": "CC1=C(C)[C@](C)(c2ccc(CBr)cc2)CC1 (single isomer, unassigned)", "MEASUREMENT_TARGET": "RAW 264.7 cells", "DATA_VALUE": "above 25 μM"}

Query block: Could you please provide reported cytostatic activity above the stated concentration for C=CC(C)(O)CC[C@@H]1C(=C)CC[C@H](Br)C1(C)C (some centres unmarked) ? Thanks!
Result block: above 25 μM

Query block: Identify measured cytostatic activity above the stated concentration corresponding to C=C1[C@](C)(O)CC[C@@]1(C)c1ccc(CO)cc1
Result block: above 50 μM

Query block: Entry CC(=O)CC[C@](C)(C(C)=O)c1ccc(CO)cc1 (single isomer, unassigned) [Compound 14, 2,3-dioxo-15-hydroxy-seco-laurene] needs its cytostatic activity above the stated concentration filled in; supply it.
Result block: above 25 μM

Query block: For the compound CC1=CC[C@@H](Br)C(C)(C)[C@]12CC[C@](C)(Cl)[C@@H](Br)C2 , give its reported cytostatic activity above the stated concentration.
Result block: above 25 μM

Query block: Write down cytostatic activity above the stated concentration measured for item CC1(C)[C@H](O)CC[C@@]1(C)c1ccc(CO)cc1
Result block: above 50 μM
